- Assay explanation: E. coli growth modulation, two-sided OD650, primary screen, E. coli filamentation project, strain DRC41, 24 h (AID 1093);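 also: MC1000 strain lacking acrAB efflux and sulA so SOS filamentation is blocked; test concentration not given here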
- Run conditions: OD650, 24 h, higher = more signal, called active from +8 up or from −8 down
Classification field: fulfilled = z-score at or over 0.4; not fulfilled = z-score under 0.4.

Molecule	Cat
CC(=O)OC[C@H]1O[C@H](CC=NO[C@H](C)c2cn([C@H](CO)Cc3ccccc3)nn2)C=C[C@@H]1OC(C)=O	fulfilled
CC(C)=CCCC(C)=CCON=C1C[C@@H](O)[C@@H](O)[C@@H]2[C@@H]3C(=O)N(Cc4ccccc4)C(=O)[C@@H]3CC[C@@H]12	not fulfilled
COc1ccc(O[C@H]2C=C[C@@H](c3ccccc3)O[C@@H]2CON=CC[C@@H]2C=C[C@H](OC(C)=O)[C@@H](COC(C)=O)O2)cc1	not fulfilled
CCCNC(=O)OC[C@H]1O[C@H](CCON=C(C)C)C=C[C@@H]1Oc1ccc(OC)cc1	fulfilled
CCN1C(=O)[C@H]2[C@H]3[C@H](O)[C@H](O)CC(=O)[C@@H]3CC[C@H]2C1=O	fulfilled
Cc1ccc(S(=O)(=O)N[C@@H]2COC(=O)[C@@H](C)COC(=O)CC=C[C@H]2C)cc1	not fulfilled
C#CCCCON=C1C[C@@H](O)[C@@H](O)[C@@H]2[C@@H]3C(=O)N(C(C)(C)C)C(=O)[C@@H]3CC[C@@H]12	not fulfilled
CCOC(=O)[C@H](CC(C)C)NC(=O)CCC1CC(OC(=O)NCCc2ccc(F)cc2)CC2(CCCC(COC(=O)NCC3CCCCC3)O2)O1 (stereo partly drawn)	not fulfilled

* * *

- Assay explanation: MM1S cell viability effects, profiling panel, calcein-AM fluorescence, 48 h, basal (AID 1165);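 also: viability of MM1S multiple myeloma cells under basal unstimulated conditions; test concentration not given here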
- Run conditions: higher = more signal
Classification field: true = z-score at or over -0.5; false = z-score under -0.5.

Compound	Cat
O=C1[C@H]2[C@H]3[C@H](O)[C@H](O)CC(=NOCc4ccccc4)[C@@H]3CC[C@H]2C(=O)N1C[C@@H]1CCCO1	true
C[C@@H]1NC(=O)[C@@H](C)COC(=O)[C@H](C)NC(=O)[C@@H](C)COC1=O	true
C[C@@H]1CC[C@H]2C(=O)O[C@@H](Cc3ccccc3)CN2[C@H]1c1ccc(Br)cc1	false
CCO[C@H](c1cc(OC)cc([N+](=O)[O-])c1OC)[C@H](C)C=CCC(=O)OC	true
C=CC1=C[C@H](O)[C@@H]2O[C@@H]2C12OCCCO2	false
COC(=O)[C@H](C)NC(=O)CCC1CC(OC(=O)NCCc2ccc(F)cc2)CC2(CCCC(COC(=O)NCc3cccc(C(F)(F)F)c3)O2)O1 (stereo not given in full)	false
CCN1C(=O)[C@H]2[C@H]3[C@H](O)[C@H](O)CC(=NOC[C@H]4O[C@H](c5ccccc5)C=C[C@@H]4Oc4ccc(OC)cc4)[C@@H]3CC[C@H]2C1=O	false
COc1cccc([C@H]2Oc3ccc(OC)cc3C(=NO[C@@H]3O[C@H](COC(C)=O)[C@@H](OC(C)=O)[C@H](OC(C)=O)[C@H]3OC(C)=O)[C@@H]2O)c1	false
CC(C)=CCCC(C)=CCON=C1C[C@@H](O)[C@@H](O)[C@@H]2[C@@H]3C(=O)N(C[C@@H]4CCCO4)C(=O)[C@@H]3CC[C@H]12	true
CC(CCN1CCc2nc(-c3ccccc3)c(-c3ccccc3)cc2C1)=NOC[C@@H](O)COCc1ccco1	true
COc1ccc(O[C@H]2C=C[C@@H](c3ccccc3)O[C@@H]2CON=C2[C@H]3CCn4c(=O)n(-c5ccccc5)c(=O)n4[C@H]3[C@H](O)[C@@H]3O[C@H]23)cc1	false
CO[C@@H]1COC(=O)[C@H](CCSC)NC(=O)CC=C[C@@H](C)COC(=O)[C@H](C)NC(=O)CC=C[C@H]1C	true
CC(CCN1CCCc2nc(C)c(C)cc21)=NOC(C)CN1CCCCc2nc(C)c(C)cc21 (stereo not given)	false
CO[C@H](C1CCCCC1)[C@H](C)C=CCC(=O)OCCCc1ccccc1	true
O=C(NN=C1C[C@@H](O)[C@@H](O)[C@@H]2[C@@H]3C(=O)N(C4CCCCC4)C(=O)[C@@H]3CC[C@H]12)OCc1ccccc1	false
